Values compiled from ChEMBL document CHEMBL1201862.

target: Type-1 angiotensin II receptor (Homo sapiens, UniProt P30556); test: AT1 receptor antagonists, dose response, selectivity assay for APJ receptor antagonist project, cell-based, uHTS hits (AID 463214); type: functional;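 note: antagonist potency against angiotensin II stimulated AT1 response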
Sequence (P30556 whole entry): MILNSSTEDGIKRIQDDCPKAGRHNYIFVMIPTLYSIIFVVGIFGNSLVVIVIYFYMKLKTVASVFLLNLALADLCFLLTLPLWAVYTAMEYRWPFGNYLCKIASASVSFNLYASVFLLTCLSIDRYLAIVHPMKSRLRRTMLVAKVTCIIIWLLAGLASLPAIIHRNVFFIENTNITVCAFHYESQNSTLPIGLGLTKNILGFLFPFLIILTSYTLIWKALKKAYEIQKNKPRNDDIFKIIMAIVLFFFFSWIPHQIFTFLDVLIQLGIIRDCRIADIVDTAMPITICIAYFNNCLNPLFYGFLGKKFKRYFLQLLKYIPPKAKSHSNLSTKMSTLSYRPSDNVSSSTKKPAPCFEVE
Active and inactive are the calls of the source. Cut-off read from the data, not from the text of the source: active = IC50 of 20 µM or less and inactive = more.
Metric: IC50

Query Smiles: Cc1nn(CCC(=O)NNC(S)=NCC(C)C)c(C)c1Br
IC50: 15.9 µM (active)
//
Query Smiles: CCS(=O)(=O)c1ncc(Cl)c(C(=O)Nc2ccc(S(=O)(=O)N(C)c3ccccc3)cc2)n1
IC50: 3.56 µM (active)
//
Query Smiles: COc1cc(/C=C/[N+](=O)[O-])ccc1OC(=O)c1cccnc1
IC50: 5.87 µM (active)

[Q] Kindly indicate its recorded IC50. Item: "COc1cc(NS(=O)(=O)c2ccc(NC(=S)NC(=O)C3CCCC3)cc2)nc(OC)n1"
[A] > 40 µM (not active)
